assay-overview: in vitro
test-settings: human, Caco-2
Consider the following compounds; for each one, report its Papp A→B at 2 h, 10 µM.
Please state the figure in ×10⁻⁶ cm/s; there is no need to write the unit.

Q) I have this compound here, `CC(C)(C(=O)Nc1ccc(-c2cncc(C(F)(F)F)n2)cn1)c1csc(NS(=O)(=O)C2CC2)n1` , and I need its recorded Papp A→B at 2 h, 10 µM.
A) 7.1

Q) I have this compound here, `CC(C)(C(=O)Nc1ccc(-c2cncc(C(F)(F)F)n2)cc1F)c1csc(NS(=O)(=O)C2CC2)n1` , and I need its recorded Papp A→B at 2 h, 10 µM.
A) 9.9

----------
assay-overview: Cmax in collagen-induced arthritis mouse at 50 mg/kg, po measured at day 9
Assay type: ADME, organism-based
Set-up: dose 50 mg/kg, time 9 day, route po
test-settings: in vivo
observed-property: Cmax (ng/mL)
Please state the figure in ng/mL; there is no need to write the unit.

Q) I have this compound here, `CC(C)(C(=O)Nc1ccc(-c2cncc(C(F)(F)F)n2)cn1)c1csc(NS(=O)(=O)C2CC2)n1` , and I need its recorded Cmax.
A) 6390

----------
assay-overview: AUC(0 to t) in collagen-induced arthritis mouse at 50 mg/kg, po measured at day 19
Format: ADME, organism-based
Parameters: dose 50 mg/kg, time 19 day, route po
test-settings: in vivo
observed-property: AUC(0-t) at 456 h
Form entry: enter the amount, then its unit.

Q) I have this compound here, `CC(C)(C(=O)Nc1ccc(-c2cncc(C(F)(F)F)n2)cn1)c1csc(NS(=O)(=O)C2CC2)n1` , and I need its recorded AUC(0-t) at 456 h.
A) 52600 ng·h/mL

----------
assay-overview: Cmax in collagen-induced arthritis mouse at 50 mg/kg, po measured at day 2
Format: ADME, organism-based
Design: dose 50 mg/kg, time 2 day, route po
test-settings: in vivo
observed-property: Cmax (ng/mL)
Please state the figure in ng/mL; there is no need to write the unit.

Q) I have this compound here, `CC(C)(C(=O)Nc1ccc(-c2cncc(C(F)(F)F)n2)cn1)c1csc(NS(=O)(=O)C2CC2)n1` , and I need its recorded Cmax.
A) 7830

----------
assay-overview: in vivo
test-settings: CD-1, mouse, po, 10 mg/kg
observed-property: AUC(0-t) (µM·h)
Please state the figure in µM·h; there is no need to write the unit.

Q) I have this molecule here, `CC(C)(C(=O)Nc1ccc(-c2cncc(C(F)(F)F)n2)cn1)c1csc(NS(=O)(=O)C2CC2)n1` , and I need its recorded AUC(0-t).
A) 25.3

Q) I have this molecule here, `CCCOc1ccc(NC(=O)C(C)(C)c2csc(NS(=O)(=O)C3CC3)n2)cc1` , and I need its recorded AUC(0-t).
A) 2.34

Q) I have this molecule here, `CC(C)(C(=O)Nc1ccc(-c2cncc(C(F)(F)F)n2)cc1F)c1csc(NS(=O)(=O)C2CC2)n1` , and I need its recorded AUC(0-t).
A) 56.1

----------
assay-overview: Cmax in collagen-induced arthritis mouse at 10 mg/kg, po measured at day 2
Type: ADME, organism-based
Design: dose 10 mg/kg, time 2 day, route po
test-settings: in vivo
observed-property: Cmax (ng/mL)
Please state the figure in ng/mL; there is no need to write the unit.

Q) I have this compound here, `CC(C)(C(=O)Nc1ccc(-c2cncc(C(F)(F)F)n2)cn1)c1csc(NS(=O)(=O)C2CC2)n1` , and I need its recorded Cmax.
A) 4770
